- study-target: hCRTH2 receptor (Homo sapiens)
- Construct: expressed in transfected cells; host or cells: clonal HEK 293 cell line (membranes)
- Sequence (Q9Y5Y4 1-395): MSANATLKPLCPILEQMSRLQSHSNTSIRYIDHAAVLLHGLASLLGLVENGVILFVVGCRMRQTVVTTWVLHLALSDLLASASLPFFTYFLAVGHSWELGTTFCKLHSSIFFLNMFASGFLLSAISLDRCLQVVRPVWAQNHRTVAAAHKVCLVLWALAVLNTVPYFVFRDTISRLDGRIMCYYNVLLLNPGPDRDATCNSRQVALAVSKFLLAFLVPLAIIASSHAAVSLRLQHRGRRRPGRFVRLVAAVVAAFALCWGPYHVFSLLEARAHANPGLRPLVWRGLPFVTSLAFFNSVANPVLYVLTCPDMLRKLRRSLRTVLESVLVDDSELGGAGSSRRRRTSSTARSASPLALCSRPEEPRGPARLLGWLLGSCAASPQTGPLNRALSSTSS
- method-summary: CRTH2 membranes radioligand binding assay ({3H}-PGD2); antagonist binding to the CRTH2 receptor
- protocol-conditions: {3H}-PGD2 radioligand binding, membranes of HEK 293 cells expressing recombinant hCRTH2; read-out: hCRTH2 BDG IC50
pIC50: −log10 of the molar value.
outcome-measure: pIC50

Worked cases, answers included:
CCCCOC(=O)N(CCCSc1nc2ccccc2n1CC(=O)O)CCc1ccccc1; 8.00
COC(=O)c1cccc(CSc2nc3cc([N+](=O)[O-])ccc3n2CC(=O)O)c1; 7.82
CCCC(=O)N1CCCC(CSc2nc3cc(Cl)c(Cl)cc3n2CC(=O)O)C1 (stereo not shown); 8.40
CCCCC(=O)N(CCCSc1nc2ccccc2n1CC(=O)O)CCc1ccccc1; 7.92
CCCCOC(=O)N(CCCSc1nc2cc([N+](=O)[O-])ccc2n1CC(=O)O)CCc1ccccc1; 9.00

1. CCCC(=O)N1CCCC(CSc2nc3ccccc3n2CC(=O)O)C1 (racemic)
2. COc1ccc(C(C)=O)cc1CSc1nc2cc(C=O)ccc2n1CC(=O)O
*Q* Determine, for 1 and 2 , which has the greater value of pIC50. The response must carry the label of the picked entry.
*A* 2

1. CC(=O)c1ccc(OCCCO)c(CSc2nc3cc(F)ccc3n2CC(=O)O)c1
2. CCCCC(=O)N(CCCSc1nc2ccccc2n1CC(=O)O)CC(c1ccccc1)c1ccccc1
*Q* Determine, for 1 and 2 , which has the greater value of pIC50. The response must carry the label of the picked entry.
*A* 1

---

- study-target: hCRTH2 receptor (Homo sapiens, UniProt Q9Y5Y4)
- Construct: expressed in transfected cells; host or cells: clonal HEK 293 cell line (membranes)
- method-summary: Intracellular calcium mobilization assay (FLIPR), antagonism of prostaglandin D2
- Format: cell-based
- Description: A functional assay with cells expressing the human CRTH2 receptor may be used to detect changes in the levels of intracellular calcium concentration following compound treatment. After addition of the compound the cells are challenged with PGD2. […] The ability of the compounds to inhibit PGD2 induced change of intracellular calcium levels via CRTH2 activation may be measured by methods known of one skilled in the art or by the method described below in the experimental part. […]
outcome-measure: pIC50
Interpret pIC50 as the negative base-10 log of the concentration measured in mol/L.

*Q* Hello, I am looking for reported pIC50 with hCRTH2 receptor (Homo sapiens, UniProt Q9Y5Y4) for CCCCNC(=O)c1ccc(OC)c(CSc2nc3cc(F)ccc3n2CC(=O)O)c1 . Could you help?
*A* 7.68
